- SYSTEM NAME: T1, L-selectin (CD62L) on J.RT3-T3.5 cells (Homo sapiens, UniProt P14151 P14151:39-372)
- T1 sequence: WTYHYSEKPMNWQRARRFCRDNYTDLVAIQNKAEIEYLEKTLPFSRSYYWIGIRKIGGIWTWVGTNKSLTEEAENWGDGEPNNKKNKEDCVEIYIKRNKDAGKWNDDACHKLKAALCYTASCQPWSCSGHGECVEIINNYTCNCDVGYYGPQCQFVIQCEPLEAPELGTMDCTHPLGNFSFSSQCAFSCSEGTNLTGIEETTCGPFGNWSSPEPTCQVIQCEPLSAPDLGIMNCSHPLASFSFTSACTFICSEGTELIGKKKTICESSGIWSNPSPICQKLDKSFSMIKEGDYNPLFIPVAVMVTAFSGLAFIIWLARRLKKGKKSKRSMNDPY
- METHOD: flow; DPBS Ca/Mg + 5 mM MgCl2, 25 mM glucose, BSA, 4 C
- TEST CONDITIONS: tags: endogenous, J.RT3-T3.5 human T-ALL line; label: 5' 6-FAM or biotin (hexaethylene glycol spacer)
MEASUREMENT LABEL: pKd
Scale for pKd: -log10 of concentration given in mol/L; no unit attached.

Short answer for CD62LApt.52 (ssDNA) DNA: TAGTCAAGGCGATAGACGAAAAACATTGTTTTCCTGGAAGGCCCAGAATCTG : pKd was 9.72
